# SUBJECT_OF_TEST: ABCB1 (P-gp) ATPase (Homo sapiens)
# Sequence (P08183 whole entry): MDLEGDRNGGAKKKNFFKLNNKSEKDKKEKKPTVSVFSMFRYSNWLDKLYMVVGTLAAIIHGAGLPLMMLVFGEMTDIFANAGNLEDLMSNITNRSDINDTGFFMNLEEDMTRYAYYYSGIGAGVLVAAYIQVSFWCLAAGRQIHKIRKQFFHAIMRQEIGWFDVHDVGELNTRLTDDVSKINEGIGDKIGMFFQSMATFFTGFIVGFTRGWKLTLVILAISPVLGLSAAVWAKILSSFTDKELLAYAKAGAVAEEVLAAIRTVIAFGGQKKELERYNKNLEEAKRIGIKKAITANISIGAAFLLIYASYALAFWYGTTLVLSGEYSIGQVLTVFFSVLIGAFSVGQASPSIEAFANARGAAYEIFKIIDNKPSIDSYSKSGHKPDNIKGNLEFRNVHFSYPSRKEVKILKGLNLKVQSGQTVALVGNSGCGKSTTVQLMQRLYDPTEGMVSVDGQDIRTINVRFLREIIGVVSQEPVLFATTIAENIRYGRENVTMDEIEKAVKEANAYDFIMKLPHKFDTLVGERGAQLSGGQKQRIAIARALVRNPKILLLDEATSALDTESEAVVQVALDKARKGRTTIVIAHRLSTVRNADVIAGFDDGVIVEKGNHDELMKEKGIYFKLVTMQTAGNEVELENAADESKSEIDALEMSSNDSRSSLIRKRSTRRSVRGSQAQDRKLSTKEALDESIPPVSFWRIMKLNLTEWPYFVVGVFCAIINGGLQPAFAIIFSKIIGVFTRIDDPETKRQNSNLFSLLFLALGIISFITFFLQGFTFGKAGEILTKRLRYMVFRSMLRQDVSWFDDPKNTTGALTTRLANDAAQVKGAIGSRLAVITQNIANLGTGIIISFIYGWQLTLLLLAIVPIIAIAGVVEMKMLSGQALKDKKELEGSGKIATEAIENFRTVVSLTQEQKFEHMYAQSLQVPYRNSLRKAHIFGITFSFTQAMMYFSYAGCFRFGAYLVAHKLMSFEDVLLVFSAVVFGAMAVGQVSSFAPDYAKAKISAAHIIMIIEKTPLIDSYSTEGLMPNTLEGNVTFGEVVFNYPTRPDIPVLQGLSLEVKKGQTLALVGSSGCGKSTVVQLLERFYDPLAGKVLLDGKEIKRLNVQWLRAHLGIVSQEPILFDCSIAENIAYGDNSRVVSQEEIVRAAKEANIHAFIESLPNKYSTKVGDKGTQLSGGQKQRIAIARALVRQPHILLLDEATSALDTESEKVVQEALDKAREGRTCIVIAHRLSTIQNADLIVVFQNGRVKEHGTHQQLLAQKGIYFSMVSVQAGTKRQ
# TEST_SUMMARY: in vitro
READOUT_LABEL: inhibition at 40 min, 2.5 µM
Dear colleague, please send the value followed by its unit.

Query: Specify reported inhibition at 40 min, 2.5 µM for the compound shown: `COc1cc2c(cc1OC)CN(CCc1ccc(NC(=O)c3cccc4c(=O)c5cccc(OC)c5[nH]c34)cc1)CC2`
Reply: 69%

----------
# SUBJECT_OF_TEST: ABCB1 (P-gp) ATPase (Homo sapiens)
# TEST_SUMMARY: in vitro
READOUT_LABEL: inhibition at 40 min, 40 µM

Query: Give inhibition at 40 min, 40 µM for this entry on ABCB1 (P-gp) ATPase (Homo sapiens): CNC(=O)c1ccc(N2C(=S)N(c3ccc(C#N)c(C(F)(F)F)c3)C(=O)C2(C)C)cc1F [enzalutamide]
Reply: 60%
